Ref: patent US20250154134A1

assay: In vivo pharmacokinetic experiment in CD-1 mice; settings: mouse, plasma, iv; CD-1 female mice, injection (1 mg/kg)
For each entry below, report its clearance value.
Value expressed in mL/min/kg; do not type the unit.

Query :: Given `COc1cc(N2CC3(CCN(C)CC3)C2)ccc1Nc1ncc(C(F)(F)F)c(Oc2cccc3c2C(=O)N(C)C32CC2)n1` , state its recorded clearance.
Result :: 18.9

Query :: Similarly, `COc1cc(C(=O)NC2CCN(C)CC2)c(F)cc1Nc1ncc(C(F)(F)F)c(Oc2cccc3c2C(=O)N(C)C32CC2)n1` ?
Result :: 34

Query :: Similarly, `COc1cc(N2CC3(CCN(C)CC3)C2)ccc1Nc1ncc(Cl)c(Oc2cccc3c2C(=O)N(C)C32CC2)n1` ?
Result :: 15

Query :: Similarly, `COc1cc(C(=O)NC2CCN(C)CC2)c(F)cc1Nc1ncc(Cl)c(Oc2cccc3c2C(=O)N(C)C32CC2)n1` ?
Result :: 26.1

----------
test: In vivo pharmacokinetic experiment in CD-1 mice; conditions: mouse, plasma, iv; CD-1 female mice, injection (1 mg/kg)
For each entry below, report its half-life value.
Provide a numeric answer, followed by its unit.

Query :: Given `COc1cc(N2CCN(C)CC2)ccc1Nc1ncc(C(F)(F)F)c(Oc2cccc3c2C(=O)N(C)C32CC2)n1` , state its recorded half-life.
Result :: 1.93 h

Query :: Similarly, `COc1cc(N2CC3(CCN(C)CC3)C2)ccc1Nc1ncc(Br)c(Oc2cccc3c2C(=O)N(C)C32CC2)n1` ?
Result :: 5.89 h

Query :: Similarly, `COc1cc(N2CC3(CCN(C)CC3)C2)ccc1Nc1ncc(Cl)c(Oc2cccc3c2C(=O)N(C)C32CC2)n1` ?
Result :: 3.31 h

Query :: Similarly, `COc1cc(N2CC3(CCN(C)CC3)C2)c(F)cc1Nc1ncc(C(F)(F)F)c(Oc2cccc3c2C(=O)N(C)C32CC2)n1` ?
Result :: 4.69 h
